Exercise: state measured ELISA OD450 for each of the binders provided.
Biological target: T1, Growth and Differentiation Factor 15 (GDF15) (UniProt Q99988 197-308, limits assumed)
T1 construct: also called MIC-1; MIC1
T1 sequence (looked up): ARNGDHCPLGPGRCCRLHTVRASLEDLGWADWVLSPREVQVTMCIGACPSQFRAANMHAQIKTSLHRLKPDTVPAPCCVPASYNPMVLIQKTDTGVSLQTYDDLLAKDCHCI
Assay: ELISA, peptide on streptavidin plate, ligand 100 ng/ml
Ends that are not written are not given here.
One number for each entry, in OD450.

Example cases with answers are listed next.
>>> result("LWRWQLYAAQSTKSPWNFLGDELYEQSDEEQDSVKVALLETNP (also: biotinylated, site not given here, also called peptide 26; GT2) [CLPTM1 peptide fragment of SEQ ID NO: 33]")
0.021
>>> result("YEQSDEEQDSVKVALLETNPG (also: biotinylated, site not given here) [CLPTM1 peptide fragment of SEQ ID NO: 25]")
0.022
>>> result("RIFIIWAISSWFRRGPAPQDG (also: biotinylated, site not given here) [CLPTM1 peptide fragment of SEQ ID NO: 11]")
0.026
>>> result("PLDQYVKFDAVSGDYYPIIYFNDYWNLQKDYYPINESLA (also: biotinylated, site not given here, also called peptide 32; GT8) [CLPTM1 peptide fragment of SEQ ID NO: 39]")
0.137

*Q* Provide measured ELISA OD450 value, entry: RRRFQKTKNLLTGETEADPEG (also: biotinylated, site not given here) [CLPTM1 peptide fragment of SEQ ID NO: 18]
*A* 0.021

Sourced from patent US20190328788A1
